System name: Diacylglycerol O-acyltransferase 1 (Homo sapiens, UniProt O75907)
Sequence (O75907 whole entry): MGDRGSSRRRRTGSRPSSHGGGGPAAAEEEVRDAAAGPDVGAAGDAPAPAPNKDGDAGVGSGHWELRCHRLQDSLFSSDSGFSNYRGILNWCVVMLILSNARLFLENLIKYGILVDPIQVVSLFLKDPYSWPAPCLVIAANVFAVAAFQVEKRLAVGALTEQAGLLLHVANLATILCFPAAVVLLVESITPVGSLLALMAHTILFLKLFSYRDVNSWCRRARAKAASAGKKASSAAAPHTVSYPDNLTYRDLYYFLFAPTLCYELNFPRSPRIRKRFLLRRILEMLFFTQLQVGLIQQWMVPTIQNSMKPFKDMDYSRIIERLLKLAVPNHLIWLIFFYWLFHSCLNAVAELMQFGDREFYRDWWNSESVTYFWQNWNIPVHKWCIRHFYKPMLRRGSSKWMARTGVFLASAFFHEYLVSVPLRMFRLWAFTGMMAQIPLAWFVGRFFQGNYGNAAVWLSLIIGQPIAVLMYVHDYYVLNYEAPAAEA
Test summary: biochemical
Description: Inhibition of N-terminal His6-tagged human recombinant DGAT1 expressed in insect cell membrane using [1-14C]decanoyl-CoA substrate by phospholipid flash plate assay
pIC50: −log10 of the molar value.
For each entry below, report its pIC50 value.

Input Nc1c(-c2cccc(Br)c2)cnc2ccnn12 . Output pIC50: < 5.00

Input Nc1c(-c2ccc([C@H]3CC[C@H](CC(=O)O)CC3)cc2)cnc2ccnn12 . Output pIC50: 8.10

Input Nc1c(-c2ccccc2Br)cnc2ccnn12 . Output pIC50: < 5.00

Input Nc1c(-c2ccccc2)cnc2ccnn12 . Output pIC50: < 5.00

Input Nc1c(-c2ccc(C(=O)O)cc2)cnc2ccnn12 . Output pIC50: < 5.00

Input CS(=O)(=O)c1ccc(-c2cnc3ccnn3c2N)cc1 . Output pIC50: < 5.00

Where do the numbers come from? From ChEMBL document CHEMBL2163253.
